- System: BRM-dependent transcription (BRG1 mutant lung cancer cell line A549)
- EXPERIMENT_NOTES: BRM-dependent transcription, MMTV luciferase reporter in BRG1 mutant A549 cells
- Assay type: cell-based
- EXPERIMENTAL_CONDITIONS: MMTV luciferase reporter cell lines, selectivity BRG1/BRM, Table 11
Please respond with reported Ratio (MDA-MMTV IC50 (μM) divided by A549-MMTV IC50 (μM)) for every item in the list.

Kindly note the recorded Ratio (MDA-MMTV IC50 (μM) divided by A549-MMTV IC50 (μM)) for C[C@@H]1CN(c2cccc(-c3ccc4cnc(CNC(=O)c5cc(F)c6c(c5)S(=O)(=O)[C@@H](F)CO6)cc4n3)n2)C[C@H](C)O1 , which is 28.75

Kindly note the recorded Ratio (MDA-MMTV IC50 (μM) divided by A549-MMTV IC50 (μM)) for COc1nc([C@@H](F)CF)ccc1-c1ccc2cnc(CNC(=O)c3cc(Br)c4c(c3)S(=O)(=O)[C@@H](F)COC4)cc2n1 , which is 35.43

Kindly note the recorded Ratio (MDA-MMTV IC50 (μM) divided by A549-MMTV IC50 (μM)) for O=C(NCc1cc2nc(-c3cccc(OC(F)F)n3)ccc2cn1)c1cc(Cl)c2c(c1)S(=O)(=O)[C@@H](F)CCO2 , which is 44.98

###

Please respond with reported Ratio (BRG1 IC50 (μM) divided by BRM IC50 (μM)) for every item in the list.
- STUDY_TARGET: BRM (Homo sapiens, UniProt P51531)
- Construct: made in house; host or cells: High Five insect cells
- Sequence (P51531 whole entry): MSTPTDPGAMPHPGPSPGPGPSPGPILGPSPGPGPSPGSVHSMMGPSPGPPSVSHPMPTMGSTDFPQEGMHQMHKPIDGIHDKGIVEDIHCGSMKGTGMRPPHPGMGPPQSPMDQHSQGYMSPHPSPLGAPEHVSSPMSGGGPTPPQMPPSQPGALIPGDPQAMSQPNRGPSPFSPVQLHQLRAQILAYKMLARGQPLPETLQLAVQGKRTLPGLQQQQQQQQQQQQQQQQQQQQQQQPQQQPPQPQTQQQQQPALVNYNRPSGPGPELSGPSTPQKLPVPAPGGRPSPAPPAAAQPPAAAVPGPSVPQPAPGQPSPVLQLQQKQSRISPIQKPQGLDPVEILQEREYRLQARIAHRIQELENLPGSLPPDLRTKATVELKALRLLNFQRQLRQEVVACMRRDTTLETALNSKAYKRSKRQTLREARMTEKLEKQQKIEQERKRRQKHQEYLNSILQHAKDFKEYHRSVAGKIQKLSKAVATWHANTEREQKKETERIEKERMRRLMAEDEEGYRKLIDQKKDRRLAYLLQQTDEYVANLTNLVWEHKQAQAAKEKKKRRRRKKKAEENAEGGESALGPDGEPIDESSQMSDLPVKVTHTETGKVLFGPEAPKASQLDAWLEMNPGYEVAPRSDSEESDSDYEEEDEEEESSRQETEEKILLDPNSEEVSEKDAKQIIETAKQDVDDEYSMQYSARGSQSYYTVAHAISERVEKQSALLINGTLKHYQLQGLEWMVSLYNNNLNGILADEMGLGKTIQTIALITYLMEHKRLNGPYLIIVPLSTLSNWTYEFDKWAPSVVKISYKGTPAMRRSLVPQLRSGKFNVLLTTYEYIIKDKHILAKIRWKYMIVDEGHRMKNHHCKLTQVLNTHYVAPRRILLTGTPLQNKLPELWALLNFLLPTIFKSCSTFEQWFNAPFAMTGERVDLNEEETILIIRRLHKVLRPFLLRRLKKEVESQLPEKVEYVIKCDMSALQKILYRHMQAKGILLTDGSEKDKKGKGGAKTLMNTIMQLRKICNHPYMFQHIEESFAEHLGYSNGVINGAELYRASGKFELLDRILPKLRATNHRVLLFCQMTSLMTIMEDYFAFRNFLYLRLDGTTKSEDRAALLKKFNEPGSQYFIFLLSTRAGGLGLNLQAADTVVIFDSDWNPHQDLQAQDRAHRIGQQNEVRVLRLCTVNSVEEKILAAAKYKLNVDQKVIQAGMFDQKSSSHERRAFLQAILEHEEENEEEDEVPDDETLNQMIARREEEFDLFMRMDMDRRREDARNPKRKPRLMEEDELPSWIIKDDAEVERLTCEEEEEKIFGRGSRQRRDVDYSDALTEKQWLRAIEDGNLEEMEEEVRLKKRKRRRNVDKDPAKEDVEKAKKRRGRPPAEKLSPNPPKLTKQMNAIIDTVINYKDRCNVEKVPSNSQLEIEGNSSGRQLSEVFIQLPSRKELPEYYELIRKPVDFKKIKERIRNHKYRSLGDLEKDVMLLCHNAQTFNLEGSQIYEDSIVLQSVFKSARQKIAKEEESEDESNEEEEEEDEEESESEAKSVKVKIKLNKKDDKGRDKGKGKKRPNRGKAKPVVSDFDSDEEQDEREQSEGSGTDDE
- EXPERIMENT_NOTES: ATPase catalytic activity assay (ADP-Glo), BRM
- Assay type: biochemical
- EXPERIMENTAL_CONDITIONS: ATPase assay, selectivity BRG1/BRM, Table 10
Output spec: single numeric token, no unit.

Kindly note the recorded Ratio (BRG1 IC50 (μM) divided by BRM IC50 (μM)) for O=C(NCc1cc2nc(N3CCOc4cc(C56CC(C5)C6)cnc43)ccc2cn1)c1cc(F)c2c(c1)S(=O)(=O)[C@@H](F)COC2 , which is 15.71

Kindly note the recorded Ratio (BRG1 IC50 (μM) divided by BRM IC50 (μM)) for O=C(NCc1cc2nc(N3CCOc4c(N5CC(F)C5)ccnc43)ccc2cn1)c1cc(F)c2c(c1)S(=O)(=O)[C@@H](F)CCO2 , which is 9.97

Kindly note the recorded Ratio (BRG1 IC50 (μM) divided by BRM IC50 (μM)) for O=C(NCc1cc2nc(-c3ccnc(N4CCCC4)n3)ccc2cn1)c1cc(F)c2c(c1)S(=O)(=O)[C@@H](F)CCO2 , which is 20.95

###

- System: BRM-dependent transcription (BRG1 mutant lung cancer cell line A549)
- EXPERIMENT_NOTES: BRM-dependent transcription, MMTV luciferase reporter in BRG1 mutant A549 cells
- Type: cell-based
- EXPERIMENTAL_CONDITIONS: MMTV luciferase reporter cell lines, selectivity BRG1/BRM, Table 11
QUANTITY_KIND: Ratio (MDA-MMTV IC50 (μM) divided by A549-MMTV IC50 (μM))
Output spec: single numeric token, no unit.

Kindly note the recorded Ratio (MDA-MMTV IC50 (μM) divided by A549-MMTV IC50 (μM)) for O=C(NCc1cc2nc(-c3cnc(OC(F)F)c(C4CC4)n3)ccc2cn1)c1cc(C(F)F)c2c(c1)S(=O)(=O)[C@@H](F)COC2 [Compound 465] , which is 55.20

Kindly note the recorded Ratio (MDA-MMTV IC50 (μM) divided by A549-MMTV IC50 (μM)) for COCCOc1nn(-c2ccc3cnc(CNC(=O)c4cc(F)c5c(c4)S(=O)(=O)[C@@H](F)COC5)cc3n2)cc1F [Compound 508] , which is 21.72

Kindly note the recorded Ratio (MDA-MMTV IC50 (μM) divided by A549-MMTV IC50 (μM)) for O=C(NCc1cc2nc(-c3ccc([C@@H](F)C(F)F)c(C4CC4)n3)ccc2cn1)c1cc(Br)c2c(c1)S(=O)(=O)[C@@H](F)COC2 [Compound 483] , which is 28.21

Kindly note the recorded Ratio (MDA-MMTV IC50 (μM) divided by A549-MMTV IC50 (μM)) for [2H]C([2H])([2H])C([2H])([2H])Oc1nc([C@@H](F)CF)ccc1-c1ccc2cnc(CNC(=O)c3cc(Cl)c4c(c3)S(=O)(=O)[C@@H](F)CCO4)cc2n1 [Compound 454] , which is 29.67

Kindly note the recorded Ratio (MDA-MMTV IC50 (μM) divided by A549-MMTV IC50 (μM)) for CCOc1nc(C(C)(F)F)ccc1-c1ccc2cnc(CNC(=O)c3cc(Cl)c4c(c3)S(=O)(=O)[C@@H](F)COC4)cc2n1 [Compound 445] , which is 22.07

Kindly note the recorded Ratio (MDA-MMTV IC50 (μM) divided by A549-MMTV IC50 (μM)) for O=C(NCc1cc2nc(-c3ccc(C(F)F)nc3OCC3CC3)ccc2cn1)c1cc(F)c2c(c1)S(=O)(=O)[C@@H](F)COC2 [Compound 488] , which is 26.53

###

- Test system: BRM-dependent transcription (BRG1 mutant lung cancer cell line A549)
- EXPERIMENT_NOTES: BRM-dependent transcription, MMTV luciferase reporter in BRG1 mutant A549 cells
- Type: cell-based
- EXPERIMENTAL_CONDITIONS: MMTV luciferase reporter cell lines, selectivity BRG1/BRM, Table 11
QUANTITY_KIND: Ratio (MDA-MMTV IC50 (μM) divided by A549-MMTV IC50 (μM))
Output spec: single numeric token, no unit.

Kindly note the recorded Ratio (MDA-MMTV IC50 (μM) divided by A549-MMTV IC50 (μM)) for O=C(NCc1cc2nc(-c3ccc(OC(F)F)c(C4CC4)n3)ccc2cn1)c1cc(Cl)c2c(c1)S(=O)(=O)[C@@H](F)CCO2 [Compound 355] , which is 23.10

Kindly note the recorded Ratio (MDA-MMTV IC50 (μM) divided by A549-MMTV IC50 (μM)) for COCc1ccc(-c2ccc3cnc(CNC(=O)c4cc(F)c5c(c4)S(=O)(=O)[C@@H](F)CCO5)cc3n2)nc1C1CC1 [Compound 354] , which is 26.53

Kindly note the recorded Ratio (MDA-MMTV IC50 (μM) divided by A549-MMTV IC50 (μM)) for CCOc1nc([C@H](C)F)ccc1-c1ccc2cnc(CNC(=O)c3cc(F)c4c(c3)S(=O)(=O)[C@@H](F)COC4)cc2n1 [Compound 395] , which is 21.65

Kindly note the recorded Ratio (MDA-MMTV IC50 (μM) divided by A549-MMTV IC50 (μM)) for O=C(NCc1cc2nc(-c3ccc(C(F)F)c(C4CC4)n3)ccc2cn1)c1cc(Br)c2c(c1)S(=O)(=O)[C@@H](F)COC2 [Compound 442] , which is 25.83

Kindly note the recorded Ratio (MDA-MMTV IC50 (μM) divided by A549-MMTV IC50 (μM)) for Cc1cc(C(=O)NCc2cc3nc(-c4ccc(C(F)F)c(C5CC5)n4)ccc3cn2)cc2c1COC[C@H](F)S2(=O)=O [Compound 397] , which is 29.48

Kindly note the recorded Ratio (MDA-MMTV IC50 (μM) divided by A549-MMTV IC50 (μM)) for CCOc1nc(C(C)(F)F)ccc1-c1ccc2cnc(CNC(=O)c3cc(F)c4c(c3)S(=O)(=O)[C@@H](F)COC4)cc2n1 [Compound 471] , which is 25.44

###

Please respond with reported Ratio (BRG1 IC50 (μM) divided by BRM IC50 (μM)) for every item in the list.
- STUDY_TARGET: BRM (Homo sapiens)
- Construct: made in house; host or cells: High Five insect cells
- EXPERIMENT_NOTES: ATPase catalytic activity assay (ADP-Glo), BRM
- Type: biochemical
- EXPERIMENTAL_CONDITIONS: ATPase assay, selectivity BRG1/BRM, Table 10

Kindly note the recorded Ratio (BRG1 IC50 (μM) divided by BRM IC50 (μM)) for O=C(NCc1cc2nc(N3CCOc4cc(N5C[C@@H](F)[C@H](F)C5)cnc43)ccc2cn1)c1cc(F)c2c(c1)S(=O)(=O)[C@@H](F)COC2 , which is 15.78

Kindly note the recorded Ratio (BRG1 IC50 (μM) divided by BRM IC50 (μM)) for O=C(NCc1cc2nc(-c3cccc(OC(F)F)n3)ccc2cn1)c1cc(F)c2c(c1)S(=O)(=O)[C@@H](F)COC2 , which is 23.40

Kindly note the recorded Ratio (BRG1 IC50 (μM) divided by BRM IC50 (μM)) for O=C(NCc1cc2nc(-c3ccnc(N4CCC4)n3)ccc2cn1)c1cc(F)c2c(c1)S(=O)(=O)[C@@H](F)COC2 , which is 14.53

Kindly note the recorded Ratio (BRG1 IC50 (μM) divided by BRM IC50 (μM)) for C[C@@H]1CN(c2cccc(-c3ccc4cnc(CNC(=O)c5cc(Cl)c6c(c5)S(=O)(=O)[C@@H](F)COC6)cc4n3)n2)C[C@H](C)O1 , which is 12.12

Kindly note the recorded Ratio (BRG1 IC50 (μM) divided by BRM IC50 (μM)) for O=C(NCc1cc2nc(N3CCOc4ccc([C@H]5C[C@@H]5F)nc43)ccc2cn1)c1cc(F)c2c(c1)S(=O)(=O)[C@@H](F)COC2 , which is 17.90

Kindly note the recorded Ratio (BRG1 IC50 (μM) divided by BRM IC50 (μM)) for O=C(NCc1cc2nc(N3CCCc4cc(OC(F)F)cnc43)ccc2cn1)c1cc(F)c2c(c1)S(=O)(=O)[C@@H](F)CCO2 , which is 10.03
